System: DMS 273 small cell lung
EXPERIMENTAL_PROTOCOL: NCI tumour cell line growth inhibition, 48 h
VALUE_TYPE: TGI

- MOLECULE: "CC(C)C(=O)/C=C/c1ccc(Br)cc1"
  SYSTEM_TESTED: "DMS 273 small cell lung"
  MEASURED_VALUE: "28.7 µM"
- MOLECULE: "CN[C@@H](C)[C@H](NC)c1ccccc1"
  SYSTEM_TESTED: "DMS 273 small cell lung"
  MEASURED_VALUE: "> 100 µM"
- MOLECULE: "CCCCCCCCCCCCCCCCCC(=O)O[C@H](COC(=O)CCCCCCCCCCC)COC(=O)CCCCCCCCCCCCCCC"
  SYSTEM_TESTED: "DMS 273 small cell lung"
  MEASURED_VALUE: "> 100 µM"
- MOLECULE: "CCCCOC(=O)NC(=O)c1cn(CCCOC(=O)NCCCCCCNC(=O)OCCCn2cc(C(=O)NC(=O)OCCCC)c(=O)[nH]c2=O)c(=O)[nH]c1=O"
  SYSTEM_TESTED: "DMS 273 small cell lung"
  MEASURED_VALUE: "> 100 µM"
- MOLECULE: "C1C[OH+]CCNCC[OH+]CC[OH+]CCN1.[Cl-].[Pt+4]"
  SYSTEM_TESTED: "DMS 273 small cell lung"
  MEASURED_VALUE: "> 100 µM"
- MOLECULE: "C=CCNC(=O)N(CCC)CCCCC(NC(C)=O)C(=O)NCc1ccccc1 (configuration not stated)"
  SYSTEM_TESTED: "DMS 273 small cell lung"
  MEASURED_VALUE: "> 100 µM"
- MOLECULE: "CC(=O)Nc1cc2c(s1)CCC1CC(=O)NN=C21 (configuration not stated)"
  SYSTEM_TESTED: "DMS 273 small cell lung"
  MEASURED_VALUE: "> 100 µM"
- MOLECULE: "COc1ccc(C2c3cc(OC)c(OC)cc3C(Cc3ccc([N+](=O)[O-])cc3)C2c2ccc([N+](=O)[O-])cc2)cc1OC (configuration not stated)"
  SYSTEM_TESTED: "DMS 273 small cell lung"
  MEASURED_VALUE: "> 100 µM"
- MOLECULE: "O=C1OC2(OC2c2ccccc2)c2ccccc21 (configuration not stated)"
  SYSTEM_TESTED: "DMS 273 small cell lung"
  MEASURED_VALUE: "> 100 µM"
- MOLECULE: "NC1=NS(=O)(=O)Nc2nc(-c3ccc([N+](=O)[O-])cc3)[nH]c21"
  SYSTEM_TESTED: "DMS 273 small cell lung"
  MEASURED_VALUE: "> 100 µM"
- MOLECULE: "O=c1[nH]c2cc(Cl)ccc2nc1/C(=N\\O)C(O)c1ccc(Cl)cc1Cl (configuration not stated)"
  SYSTEM_TESTED: "DMS 273 small cell lung"
  MEASURED_VALUE: "> 100 µM"
- MOLECULE: "COc1ccc(/C(Cl)=C(\\C=O)c2ccc(F)cc2)cc1OC"
  SYSTEM_TESTED: "DMS 273 small cell lung"
  MEASURED_VALUE: "97.3 µM"

====

Test system: U251 CNS
Classes used: active, inactive

- MOLECULE: "COc1cccc(/C(COc2ccc3c(c2)oc(=O)c2cc(OC)ccc23)=N/O)c1"
  CLASS_ASSIGNMENT: "inactive"
- MOLECULE: "Cc1cc2c(cc1Cl)SC(=Nc1ccc(Cl)cc1)N(S(=O)(=O)c1ccccc1)S2(=O)=O"
  CLASS_ASSIGNMENT: "inactive"
- MOLECULE: "COc1ccc(-c2oc3cc(O)c(OC)c(O)c3c(=O)c2OC)cc1O"
  CLASS_ASSIGNMENT: "active"
- MOLECULE: "CC(C)S(=O)(=O)c1ccccc1Nc1nc(Nc2cccc(NC(=O)CN)c2)ncc1Cl"
  CLASS_ASSIGNMENT: "active"
- MOLECULE: "C[C@@]12CCCc3coc(c31)C(=O)c1cc3c(cc12)C(=O)C=CC3=O"
  CLASS_ASSIGNMENT: "inactive"
- MOLECULE: "NC(CS/C(Cl)=C/Cl)C(=O)O (stereo not given)"
  CLASS_ASSIGNMENT: "inactive"
- MOLECULE: "Oc1cn(-c2ccc(Cl)cc2)nc1-c1n[nH]c(=S)n1C1CCCCC1"
  CLASS_ASSIGNMENT: "inactive"
- MOLECULE: "O=C(CSC(c1ccccc1)c1ccccc1)N/N=C/c1ccc(Cl)cc1Cl"
  CLASS_ASSIGNMENT: "inactive"
- MOLECULE: "Cc1ccc(S(=O)(=O)NCCNc2nccc(-c3c(-c4ccc(F)cc4)nc4sccn34)n2)cc1"
  CLASS_ASSIGNMENT: "inactive"
- MOLECULE: "COc1ccc(-c2c[nH]c(=S)n2-c2ccc(OC)cc2)cc1"
  CLASS_ASSIGNMENT: "inactive"
- MOLECULE: "CN(CCCNC(=O)Cc1ccc2ccc3cccc4ccc1c2c34)CCCNc1cc(-c2ccc3ccccc3c2)nc2ccccc12"
  CLASS_ASSIGNMENT: "inactive"
- MOLECULE: "CCn1c(CO)nn(-c2cc(O[C@@H](C)C(F)(F)F)c(C(=O)Nc3c(F)cccc3Cl)cc2F)c1=O"
  CLASS_ASSIGNMENT: "active"
- MOLECULE: "O=C(Nc1ccc(Br)cc1)c1ccc(Cl)c(Cl)c1"
  CLASS_ASSIGNMENT: "inactive"
- MOLECULE: "Cn1cc(C2=C(c3cn(CCCCCN)c4ccccc34)C(=O)NC2=O)c2ccccc21"
  CLASS_ASSIGNMENT: "inactive"
- MOLECULE: "C[C@]12CC[C@@H]3c4ccc(O)cc4CC[C@H]3[C@@H]1CC[C@@H]2NS(=O)(=O)c1cccc(F)c1"
  CLASS_ASSIGNMENT: "inactive"

====

Measured TGI accompanies every entry in the list below.
Test system: HOP-92 NSCLC
EXPERIMENTAL_PROTOCOL: NCI tumour cell line growth inhibition, 48 h

- COMPOUND: "CCCCC1(CN2CCOCC2)S/C(=N/c2nc(CC(=O)OCC)cs2)NC1=O (configuration not stated)"
  TGI: "> 100 µM"
- COMPOUND: "NC1=NS(=O)(=O)Nc2nc(-c3ccc(Cl)cc3)c(-c3ccc(Cl)cc3)nc21"
  TGI: "> 100 µM"
- COMPOUND: "COC(=O)/C(C=O)=C/Sc1ccccc1"
  TGI: "> 100 µM"
- COMPOUND: "CN[C@@H](C)[C@H](NC)c1ccccc1"
  TGI: "> 100 µM"
- COMPOUND: "COc1ccc(/C(Cl)=C(\\C=O)c2ccc(F)cc2)cc1OC"
  TGI: "29.3 µM"
- COMPOUND: "O=C1c2ccccc2-c2nc(-c3cccc([N+](=O)[O-])c3)nnc21"
  TGI: "> 100 µM"
- COMPOUND: "Nc1ccc2[nH]c3c(-c4ccccc4)nccc3c2c1"
  TGI: "> 100 µM"
- COMPOUND: "CC(C)C(=O)/C=C/c1ccc(Br)cc1"
  TGI: "30.9 µM"
- COMPOUND: "Cc1ccc2c(=O)cc(-c3cccs3)[nH]c2n1"
  TGI: "> 100 µM"
- COMPOUND: "COc1ccc2ncn(-c3cc(O[C@H](C)c4ccccc4Cl)c(C(N)=O)s3)c2c1"
  TGI: "8.01 µM"
- COMPOUND: "CCCSc1ccc2[nH]c(/N=C/c3ccco3)cc2c1"
  TGI: "> 100 µM"
- COMPOUND: "COC(=O)C1=CC(=O)OC1(OO)c1ccccc1 (configuration not stated)"
  TGI: "> 100 µM"

====

Test system: SF-295 CNS
EXPERIMENTAL_PROTOCOL: NCI tumour cell line growth inhibition, 48 h; in the data active = GI50 below about 0.43 µM; inactive = the rest
Classes used: label 1 for active, label 0 for inactive

- MOLECULE: "C[C@]12CC[C@H](O)C[C@H]1CC[C@@H]1[C@@H]2CC[C@]2(C)[C@@H](C3=CC(=O)OC3)CC[C@]12O"
  CLASS_ASSIGNMENT: "label 1"
- MOLECULE: "COc1ccc(C(=O)COc2cccc(/C=C3\\Oc4ccc5ccccc5c4C3=O)c2)cc1"
  CLASS_ASSIGNMENT: "label 0"
- MOLECULE: "C[C@]12CCc3nc(Nc4ccccc4)sc3C1=CC[C@@H]1[C@@H]2CC[C@]2(C)/C(=N/NC(N)=S)CC[C@@H]12"
  CLASS_ASSIGNMENT: "label 0"
- MOLECULE: "COCCOc1cnc2ccn([C@H](C)c3nnc4c(F)cc(-c5cnn(C)c5)cn34)c(=O)c2c1"
  CLASS_ASSIGNMENT: "label 0"
- MOLECULE: "Oc1cn(-c2ccc(Cl)cc2)nc1-c1n[nH]c(=S)n1C1CCCCC1"
  CLASS_ASSIGNMENT: "label 1"
- MOLECULE: "CC(=O)/C=C/c1ccc(C#Cc2ccccc2)s1"
  CLASS_ASSIGNMENT: "label 0"
- MOLECULE: "Cc1ccc(S(=O)(=O)NCCNc2nccc(-c3c(-c4ccc(F)cc4)nc4sccn34)n2)cc1"
  CLASS_ASSIGNMENT: "label 0"
- MOLECULE: "COc1cc2c3c(n(CCCN(C)C)c(=O)c2cc1OC)-c1ccccc1C3=O"
  CLASS_ASSIGNMENT: "label 0"
- MOLECULE: "NC(CS/C(Cl)=C/Cl)C(=O)O (centres undefined)"
  CLASS_ASSIGNMENT: "label 0"

Where do these numbers come from? They come from PubChem BioAssay (NCI).
